# Estrogen receptor (Homo sapiens): AC50 values follow; also: assay procedure not described here
# Sequence (P03372 whole entry): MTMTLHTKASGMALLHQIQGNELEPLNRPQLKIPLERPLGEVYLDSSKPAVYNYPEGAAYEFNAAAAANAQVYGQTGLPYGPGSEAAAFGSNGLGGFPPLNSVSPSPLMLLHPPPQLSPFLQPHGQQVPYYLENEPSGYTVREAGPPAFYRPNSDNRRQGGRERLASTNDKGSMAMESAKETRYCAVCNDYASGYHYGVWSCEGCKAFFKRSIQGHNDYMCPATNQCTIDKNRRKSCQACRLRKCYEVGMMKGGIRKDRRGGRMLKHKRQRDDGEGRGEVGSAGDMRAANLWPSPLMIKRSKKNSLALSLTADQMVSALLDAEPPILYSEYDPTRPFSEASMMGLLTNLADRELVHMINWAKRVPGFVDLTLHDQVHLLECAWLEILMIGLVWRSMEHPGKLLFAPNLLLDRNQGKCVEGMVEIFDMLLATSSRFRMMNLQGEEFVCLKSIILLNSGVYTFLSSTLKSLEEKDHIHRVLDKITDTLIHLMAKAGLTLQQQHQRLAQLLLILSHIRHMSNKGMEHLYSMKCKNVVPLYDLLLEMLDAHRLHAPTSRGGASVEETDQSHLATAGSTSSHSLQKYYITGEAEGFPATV
metric: AC50

# compound, result
records = [
    ("C1=Cc2cccc(OCC3CNCCO3)c2C1 (centres undefined) [INDELOXAZINE]", "> 30 µM"),
    ("CC(C)(Oc1ccc(C2CC2(Cl)Cl)cc1)C(=O)O (centres undefined) [CIPROFIBRATE]", "> 30 µM"),
    ("CN1CCCN=C1COC(=O)C(O)(c1ccccc1)C1CCCCC1 (centres undefined) [OXYPHENCYCLIMINE]", "> 10 µM"),
    ("CN[C@@H]1[C@H](O)[C@H](NC)[C@H]2O[C@@]3(O)C(=O)C[C@@H](C)O[C@H]3O[C@@H]2[C@H]1O [SPECTINOMYCIN]", "> 10 µM"),
    ("COc1ccc(C(=O)N2CCN(c3ccc4c(c3)CCC(=O)N4)CC2)cc1OC [VESNARINONE]", "> 30 µM"),
    ("CC(N)Cc1ccccc1 (centres undefined) [AMPHETAMINE]", "> 30 µM"),
    ("CCC1(C2=CCCCCC2)C(=O)NC(=O)NC1=O [HEPTABARBITAL]", "> 10 µM"),
    ("CN(CCCN1c2ccccc2CCc2ccccc21)CC(=O)c1ccc(Cl)cc1 [LOFEPRAMINE]", "> 30 µM"),
    ("CCOc1cc(N)c([N+](=O)[O-])cc1C(=O)NC1CCN(CC2CC=CCC2)CC1 (centres undefined) [CINITAPRIDE]", "> 30 µM"),
]

###

# Alpha-2B adrenergic receptor (Homo sapiens): AC50 values follow; also: assay procedure not described here
# Sequence (P18089 whole entry): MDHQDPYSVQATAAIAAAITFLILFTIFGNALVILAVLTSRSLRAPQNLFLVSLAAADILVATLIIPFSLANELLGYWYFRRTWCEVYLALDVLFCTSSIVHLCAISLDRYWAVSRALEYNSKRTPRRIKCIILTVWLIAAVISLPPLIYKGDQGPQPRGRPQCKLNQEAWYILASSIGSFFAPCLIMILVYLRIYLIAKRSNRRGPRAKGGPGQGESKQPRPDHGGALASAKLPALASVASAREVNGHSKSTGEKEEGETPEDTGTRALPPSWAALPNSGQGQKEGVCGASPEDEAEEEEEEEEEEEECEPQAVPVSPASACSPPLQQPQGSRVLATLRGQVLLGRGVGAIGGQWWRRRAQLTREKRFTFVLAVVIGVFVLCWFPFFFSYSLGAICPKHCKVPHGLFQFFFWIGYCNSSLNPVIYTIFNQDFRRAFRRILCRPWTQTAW

# compound, assay.target, AC50
measured = [
    ("CN(CCCN1c2ccccc2CCc2ccccc21)CC(=O)c1ccc(Cl)cc1 [LOFEPRAMINE]", "Alpha-2B adrenergic receptor (Homo sapiens)", "4 µM"),
    ("CCCC(CCC)C(=O)O[C@H]1C[C@H]2CC[C@@H](C1)[N+]2(C)C [ANISOTROPINE]", "Alpha-2B adrenergic receptor (Homo sapiens)", "> 30 µM"),
    ("CN1CCC2=C(C1)C(c1ccccc1)c1ccccc12 (centres undefined) [PHENINDAMINE]", "Alpha-2B adrenergic receptor (Homo sapiens)", "> 10 µM"),
    ("CC(Cc1ccccc1)NCCC(c1ccccc1)c1ccccc1 (centres undefined) [PRENYLAMINE]", "Alpha-2B adrenergic receptor (Homo sapiens)", "1.7 µM"),
    ("CCc1nn(CCCN2CCN(c3cccc(Cl)c3)CC2)c(=O)n1CCOc1ccccc1 [NEFAZODONE]", "Alpha-2B adrenergic receptor (Homo sapiens)", "0.34 µM"),
    ("CCCCCOC(=O)Nc1nc(=O)n([C@@H]2O[C@H](C)[C@@H](O)[C@H]2O)cc1F [CAPECITABINE]", "Alpha-2B adrenergic receptor (Homo sapiens)", "> 30 µM"),
    ("C[N+](C)(C)CC(=O)O [BETAINE]", "Alpha-2B adrenergic receptor (Homo sapiens)", "> 30 µM"),
    ("O=C1CN=C(c2ccccc2)c2cc(Cl)ccc2N1CC(F)(F)F [HALAZEPAM]", "Alpha-2B adrenergic receptor (Homo sapiens)", "> 30 µM"),
    ("C1COC(NC(C2CC2)C2CC2)=N1 [RILMENIDINE]", "Alpha-2B adrenergic receptor (Homo sapiens)", "7.5 µM"),
]
